As shown below, each of these molecules has a reported z-score value.
Experiment: E. coli growth modulation, two-sided OD650, primary screen, E. coli filamentation project, strain DRC41, 24 h (AID 1093);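 further: MC1000 strain lacking acrAB efflux and sulA so SOS filamentation is blocked; test concentration not given here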
Details: OD650, 24 h, higher = more signal, called active from +8 up or from −8 down
Lab note: jot the number down without any unit.

Some molecules with known z-score results, for comparison:
molecule	z-score
CC(C)C[C@@H]1NC(=O)[C@H]2C[C@@H](C(=O)O)[C@@H](c3cccc(OCCO)c3)N2C1=O	0.767
COc1ccc(CCNC(=O)[C@@]2(c3ccc([N+](=O)[O-])cc3)CC(=O)N(C3CCCCC3)[C@@H]2c2ccc(CO)cc2I)cc1	0.793

Asked: Returns the measured z-score for the input molecule. Input: [N-]=[N+]=NCc1ccccc1[C@H]1OC(c2ccc(OCCCO)cc2)=N[C@@]1(Cc1ccccc1N=[N+]=[N-])C(=O)N1CCOCC1
Given back: 0.175

Asked: Entry to check: COCCCNC(=O)[C@]1(Cc2ccccc2CN=[N+]=[N-])N=C(c2ccc(OCCCO)cc2)O[C@@H]1c1ccccc1N=[N+]=[N-]
Given back: 1.11

Asked: Entry to check: C=C(CC1([C@@H](NP(=O)(c2ccccc2)c2ccccc2)[C@H]2C[C@@H]2CCCC)CC1)c1cccc(OC)c1
Given back: -0.768

----------
Assay: basal HepG2 mitochondrial membrane potential changes, profiling panel, cell-based, JC-1 fluorescence, 24 h, 100 nL compound (AID 1167); further: test concentration not given here
Conditions: higher = more signal
As shown below, each of these compounds has a reported z-score value.
Lab note: jot the number down without any unit.

Some compounds with known z-score results, for comparison:
compound	val
CO[C@H]1O[C@H](CO)[C@@H](OC(=O)CCc2ccccc2)[C@@H]2OC(=O)[C@@H](Cc3ccc4ccccc4c3)C/C=C/C[C@H](Cc3ccc4ccccc4c3)C(=O)O[C@@H]12	0.111
COc1ccc(C(=O)Nc2cccc(CN3C(=O)[C@]4(O[C@H](CC(=O)N(CCO)Cc5ccccc5)[C@@H]([Si](C)(C)c5ccc(OC)cc5)[C@@H]4C)c4ccccc43)c2)cc1	0.52
O=C1C[C@@](C(=O)NCC(F)(F)F)(c2ccc([N+](=O)[O-])cc2)[C@@H](c2ccc(CO)cc2I)N1CC12CC3CC(CC(C3)C1)C2	-0.436
O=C1NC(=O)C2C1C=CC(C(O)C1CCCCC1)N2Nc1ccccn1 (centres undefined)	-1.45
[N-]=[N+]=NCc1ccccc1C[C@@]1(C(N)=O)N=C(c2ccc(OCCCO)cc2)O[C@@H]1c1ccccc1N=[N+]=[N-]	-1.07

Asked: Returns the measured z-score for the input compound. Input: CC1CC/C=C\[C@H]2OC34C=CCN(C(C)C)C(=O)[C@H]3N(C(C)CO)C(=O)[C@@H]4C2C(=O)O1 (some centres undefined)
Given back: 0.674

Asked: Entry to check: COC(=O)C(CC#Cc1ccc2c(c1)[C@]1(C(=O)N2)[C@H](C(N)=O)[C@H]2C(=O)O[C@H](c3ccccc3)[C@H](c3ccccc3)N2[C@@H]1c1ccccc1OCCO)C(=O)OC
Given back: -0.82

Asked: Entry to check: O=C1O[C@H](c2ccccc2)[C@H](c2ccccc2)N2[C@H]1[C@@H](C(=O)N1CCCCCCC1)[C@]1(C(=O)Nc3ccc(C#CCCO)cc31)[C@H]2c1ccc(O)cc1
Given back: 0.638

Asked: Entry to check: C=CC[C@H](OC(=O)Nc1ccc(SC)cc1)c1ccc(O)c(F)c1
Given back: -3.17

Asked: Entry to check: CCCCCCc1nc(Cc2cc(OC)c(OC)c(OC)c2)c(C)c2c1[Si](C(C)C)(C(C)C)OC2
Given back: 4.95
